Catalogue of compounds with associated Ki
system-tested: MsepCSP8 (Mythimna separata, UniProt A0A1V1WC03)
Sequence (A0A1V1WC03 entry or part of it): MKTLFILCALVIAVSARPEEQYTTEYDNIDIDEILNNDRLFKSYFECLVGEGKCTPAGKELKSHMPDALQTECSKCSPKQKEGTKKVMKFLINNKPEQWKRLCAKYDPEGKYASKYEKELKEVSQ
protocol-details: Fluorescence competitive binding assay with 1-NPN as fluorescent probe
test-parameters: Ki, pH 7.4; calculated from IC50
Field: numeric (µM). Do not append units.

# Ki of CC/C=C\CCO [Cis-3-hexen-1-ol] = 15

# Ki of C=CC(O)CC (stereo not drawn) = 6.5

# Ki of CCC/C=C/C=O [Trans-2-hexenal] = 8.8

----------
system-tested: UniProt A0A1V1WC03
protocol-details: Fluorescence competitive binding assay with 1-NPN as fluorescent probe
test-parameters: IC50, pH 7.4; displacement of 1-NPN
property-name: IC50 (µM)
Field: numeric (µM). Do not append units.

> print(dat)
                                   compound  result
1  C=CC(C)(O)CCC=C(C)C (stereo not shown) [Linalool]    14.5
2  CC1=CCC(O)(C(C)C)CC1 (single isomer, unassigned; (-)) [(–)-Terpinen-4-ol]    13.9
3   CC1=CC[C@H](C(C)C)C=C1 [α-Phellandrene]    20.9
4            CCCCCCCCCC(C)=O [2-Undecanone]    35.5
5  C=CC(C)(O)CCC=C(C)CCC=C(C)C (mixture of isomers) [Nerolidol]      15

# IC50 of COC(=O)c1ccccc1 [Methyl benzoate] = 12.5

# IC50 of CCCCCCCCCCCCCCCCCCC [Nonadecane] = 25.1

----------
system-tested: MsepCSP8 (Mythimna separata)
protocol-details: Fluorescence competitive binding assay with 1-NPN as fluorescent probe
test-parameters: discussion of Table 1; pH not stated
property-name: binding affinity to MsepCSP8 in words

Known results for molecules:
> print(dat)
                                   molecule                 system.tested                   result
1  CC1=CC(=O)[C@H]2C[C@@H]1C2(C)C [(S)-(-)-verbenone]  MsepCSP8 (Mythimna separata)  high binding affinities
2                         CCCCCCCCCCCC(C)=O  MsepCSP8 (Mythimna separata)            high affinity
3         COC(=O)c1ccccc1 [Methyl benzoate]  MsepCSP8 (Mythimna separata)             bound highly
4           CCC/C=C/CO [Trans-2-hexen-1-ol]  MsepCSP8 (Mythimna separata)           bound strongly
5  CC1=CCC2C(C1)C2(C)C (single isomer, unassigned; (+)) [(+)-3-Carene]  MsepCSP8 (Mythimna separata)  high binding affinities

Measured on MsepCSP8 (Mythimna separata), C=CC(O)CCCCC (stereo not drawn) has a documented binding affinity to MsepCSP8 in words of bound strongly

Measured on MsepCSP8 (Mythimna separata), CCC(C)C=O (stereo not drawn) has a documented binding affinity to MsepCSP8 in words of high affinities

Measured on MsepCSP8 (Mythimna separata), "CCCCCCCCC=O" has a documented binding affinity to MsepCSP8 in words of high affinities

Measured on MsepCSP8 (Mythimna separata), CCC/C=C/C=O [Trans-2-hexenal] has a documented binding affinity to MsepCSP8 in words of high affinities

Measured on MsepCSP8 (Mythimna separata), "CC(=O)/C=C/C1=C(C)CCCC1(C)C" has a documented binding affinity to MsepCSP8 in words of high affinity

----------
system-tested: MsepCSP8 (Mythimna separata)
protocol-details: Fluorescence competitive binding assay with 1-NPN as fluorescent probe
test-parameters: pH 5.0; displacement of 1-NPN; read-out: IC50
Description: The expressed protein was obtained in soluble form in the supernatant, and purification was accomplished using a Ni affinity chromatography column (GE Healthcare, Uppsala, Sweden). Bound protein was eluted by digestion with recombinant bovine enterokinase at 26°C for 15 h to remove the His-tag. Expression and purification were verified by 15% sodium dodecyl sulfate-polyacrylamide gel electrophoresis (SDS-PAGE), and protein concentration was measured as described by [Cao et al. (2017)]. […]
The threshold is 20 µM. Values of IC50 beneath it are tagged yes (1); values meeting or exceeding it are tagged no (0).

> print(dat)
         compound  assigned.category
1  CCCCCCCCCCCC=O             no (0)

Q: Report whether reported IC50 is lower than 20 µM (strictly) for "C=CC(C)=CCC=C(C)C"
Result: yes (1)

Q: Report whether reported IC50 is lower than 20 µM (strictly) for "C/C1=C\CC/C(C)=C/CC(C)(C)/C=C/C1"
Result: no (0)

----------
system-tested: MsepCSP8 (Mythimna separata)
protocol-details: Fluorescence competitive binding assay with 1-NPN as fluorescent probe
test-parameters: dissociation constant, pH 7.4; saturation and Scatchard plot
property-name: pKd
Conceptually, pKd converts a concentration in mol/L into minus its log10.

# pKd of c1ccc(Nc2cccc3ccccc23)cc1 [1-NPN, N-phenyl-1-naphthylamine, reference compound] = 5.62

----------
Catalogue of molecules with associated Ki
system-tested: MsepCSP8 (Mythimna separata)
protocol-details: Fluorescence competitive binding assay with 1-NPN as fluorescent probe
test-parameters: Ki, pH 7.4; calculated from IC50
Field: numeric (µM). Do not append units.

> print(dat)
                          molecule  property.name  result
1              CCCCCCCCCCCCCCCCCCC             Ki    17.6
2  C=CC(O)CCCCC (stereo not shown)             Ki    5.79
3             CCCCCCCCCCCCCCCCCCCC             Ki    33.7

Would you kindly look at the next entry?
# Ki of "Cc1ccc(C(C)C)cc1" = 12.6

----------
system-tested: MsepCSP8 (Mythimna separata)
protocol-details: Fluorescence competitive binding assay with 1-NPN as fluorescent probe
test-parameters: Ki, pH 7.4; calculated from IC50
pKi: −log10 of the molar value.
Assign class by pKi: not lower than 5 means t; lower than 5 means f.

Answered examples (3):
> print(dat)
                compound                 system.tested  assigned.category
1     CC1=CCC(=C(C)C)CC1  MsepCSP8 (Mythimna separata)                  t
2  CCCCCCCCCCCCCCCCCCCCC  MsepCSP8 (Mythimna separata)                  t
3               CCCCCCCC  MsepCSP8 (Mythimna separata)                  f

Q: Record "CCCCCCCCCCCCCCCCCCCCCCCCC" ; criterion: pKi no lower than 5. Met?
Result: f

Q: Record CC/C=C\CCOC(C)=O [Cis-3-hexenyl acetate] ; criterion: pKi no lower than 5. Met?
Result: f

Q: Record "CC12CCC(CC1)C(C)(C)O2" ; criterion: pKi no lower than 5. Met?
Result: f

----------
system-tested: MsepCSP8 (Mythimna separata)
protocol-details: Fluorescence competitive binding assay with 1-NPN as fluorescent probe
test-parameters: IC50, pH 7.4; displacement of 1-NPN
property-name: IC50 (µM)
Field: numeric (µM). Do not append units.

Known results for compounds:
> print(dat)
                          compound  property.name  display.unit  result
1            CC12CCC(CC1)C(C)(C)O2           IC50            µM    25.2
2  CCC/C=C/CO [Trans-2-hexen-1-ol]           IC50            µM    23.8
3    CC/C=C\CCO [Cis-3-hexen-1-ol]           IC50            µM    21.4

# IC50 of CCCCCC(C)O (stereo not shown) = 23.8

# IC50 of "CCCCCCCCC=O" = 12.7

----------
system-tested: MsepCSP8 (Mythimna separata, UniProt A0A1V1WC03)
protocol-details: Fluorescence competitive binding assay with 1-NPN as fluorescent probe
test-parameters: IC50, pH 5.0; displacement of 1-NPN
Catalogue of molecules with associated pIC50
Conceptually, pIC50 converts a concentration in mol/L into minus its log10.

Known results for molecules:
> print(dat)
            molecule                             system.tested  property.name  result
1  C=CC(=C)CCC=C(C)C  MsepCSP8 (Mythimna separata, UniProt A0A1V1WC03)          pIC50    4.76
2       CCCCCCCCCC=O  MsepCSP8 (Mythimna separata, UniProt A0A1V1WC03)          pIC50    4.51

# pIC50 of CC/C=C\CCO [Cis-3-hexen-1-ol] = 4.53

----------
system-tested: MsepCSP8 (Mythimna separata)
protocol-details: Fluorescence competitive binding assay with 1-NPN as fluorescent probe
test-parameters: Ki, pH 5.0; calculated from IC50
Method: The expressed protein was obtained in soluble form in the supernatant, and purification was accomplished using a Ni affinity chromatography column (GE Healthcare, Uppsala, Sweden). Bound protein was eluted by digestion with recombinant bovine enterokinase at 26°C for 15 h to remove the His-tag. Expression and purification were verified by 15% sodium dodecyl sulfate-polyacrylamide gel electrophoresis (SDS-PAGE), and protein concentration was measured as described by [Cao et al. (2017)]. […]
property-name: Ki (µM)
Field: numeric (µM). Do not append units.

Known results for molecules:
> print(dat)
                                  molecule  display.unit  result
1  CCCCCCCCCCCCCCCCCCCCCCCCC [Pentacosane]            µM    8.36
2        COC(=O)c1ccccc1 [Methyl benzoate]            µM    15.8
3          CCCCCCCCCCCCCCCCCCCC [Eicosane]            µM    34.6
4         CCCCCCCCCCCCCCCCCCC [Nonadecane]            µM    14.8

# Ki of CCC(O)CC [3-Pentanol] = 12.9

# Ki of CCC/C=C/COC(C)=O [E-2-Hexen-1-ol acetate] = 46.9
